Exercise: for every item that follows, state its recorded Percent Effect.
# target_system: Ubiquitin-activating enzyme e1, putative (Leishmania donovani (strain BPK282A1)) (UniProt E9BSI1)
# Sequence (whole entry): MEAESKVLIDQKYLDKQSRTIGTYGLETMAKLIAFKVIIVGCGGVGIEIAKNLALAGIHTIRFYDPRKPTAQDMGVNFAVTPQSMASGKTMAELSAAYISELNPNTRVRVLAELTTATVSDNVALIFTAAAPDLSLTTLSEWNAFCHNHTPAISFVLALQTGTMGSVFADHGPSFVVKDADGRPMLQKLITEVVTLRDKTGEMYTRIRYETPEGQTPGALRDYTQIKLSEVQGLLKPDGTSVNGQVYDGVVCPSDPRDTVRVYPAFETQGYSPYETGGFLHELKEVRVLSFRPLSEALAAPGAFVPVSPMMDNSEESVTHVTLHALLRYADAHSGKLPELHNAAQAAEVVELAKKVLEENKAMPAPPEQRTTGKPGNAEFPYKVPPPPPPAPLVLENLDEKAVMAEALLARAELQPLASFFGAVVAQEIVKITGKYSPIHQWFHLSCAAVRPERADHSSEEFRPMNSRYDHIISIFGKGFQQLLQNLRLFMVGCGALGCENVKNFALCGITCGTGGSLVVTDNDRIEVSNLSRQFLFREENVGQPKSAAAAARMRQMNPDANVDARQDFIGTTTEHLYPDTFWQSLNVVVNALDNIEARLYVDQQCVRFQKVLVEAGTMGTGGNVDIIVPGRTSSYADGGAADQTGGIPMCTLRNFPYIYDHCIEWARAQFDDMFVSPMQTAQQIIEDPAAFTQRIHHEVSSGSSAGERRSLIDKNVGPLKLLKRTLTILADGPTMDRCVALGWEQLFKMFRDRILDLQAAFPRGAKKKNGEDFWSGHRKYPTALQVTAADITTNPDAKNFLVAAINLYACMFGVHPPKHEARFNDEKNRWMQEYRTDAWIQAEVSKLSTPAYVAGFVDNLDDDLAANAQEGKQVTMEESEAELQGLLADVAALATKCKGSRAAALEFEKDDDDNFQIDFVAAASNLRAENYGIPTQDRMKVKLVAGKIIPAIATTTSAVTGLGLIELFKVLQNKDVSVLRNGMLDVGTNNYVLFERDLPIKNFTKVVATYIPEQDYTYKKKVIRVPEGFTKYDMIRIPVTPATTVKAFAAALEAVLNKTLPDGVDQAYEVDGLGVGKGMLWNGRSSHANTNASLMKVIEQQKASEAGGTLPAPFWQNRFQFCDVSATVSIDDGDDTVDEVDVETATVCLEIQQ
# measurement_notes: Leishmania donovani Ubiquitin Activating Enzyme (LdE1)
# Assay type: functional
# Parameters: scale not given: direction of the effect not stated beside the values
# conditions_used: 30 µM
Measured potencies and affinities stand elsewhere.
Numbers only, in %.

Sample records with Percent Effect:
{"compound": "COCc1cn([C@@H]2c3ccccc3C3(CCNCC3)[C@H]2O)nn1", "observed_property": "Percent Effect", "measurement_units": "%", "readout_number": 9.72}
{"compound": "COc1ccc(CN2CCn3c(CNS(C)(=O)=O)nnc3C2)cc1", "observed_property": "Percent Effect", "measurement_units": "%", "readout_number": 5.41}
{"compound": "CC(NC(=O)NCCNc1cnccn1)c1cccs1 (configuration not stated)", "observed_property": "Percent Effect", "measurement_units": "%", "readout_number": 23.4}

Provide Percent Effect for all items below, preserving their order.
1. Cc1ccc(=O)n(CC2(O)CCN(Cc3cnc(C)nc3)CC2)n1
2. CC(=O)N1CCN(C(=O)CCCc2nc(C(C)C)no2)CC1
3. NC(=O)c1cnn2c1NCC(CNCCCOc1ccccc1F)C2 (configuration not stated)
4. Cc1ncsc1C(=O)N1CCCN(Cc2cscn2)CC1
5. O=C1NC(c2ccccc2)=N[C@@]12CC[C@@H]1CN(CC3CCOCC3)C[C@@H]12

[6.76, 15.2, 5.26, 5.2, 0]

From: ChEMBL document CHEMBL3988442
